Recorded values, source PubChem BioAssay AID1259407.

Test system: CCRIS mutagenicity, Ames/micronucleus/aberration tests
Assay: CCRIS mutagenicity studies
Settings: Test System: AMES SALMONELLA TYPHIMURIUM; Strain/Indicator: TA100; Metabolic Activation: NONE
The source made the active and inactive calls. How the calls were made is not given here.
ATTRIBUTE MEASURED: mutagenic call

# input Assign mutagenic call to the following record: O=[N+]([O-])c1ccc2c3c(ccc([N+](=O)[O-])c13)-c1ccccc1-2
# output active; positive

# input Assign mutagenic call to the following record: COc1cccc2c1cc([N+](=O)[O-])c1c(C(=O)O)cc3c(c12)OCO3
# output active; positive

# input Assign mutagenic call to the following record: O=[N+]([O-])c1cc2ccc3cccc4ccc(c1)c2c34
# output active; positive
